SUBJECT OF TEST: human kappa opioid receptors (Homo sapiens)
Construct: expressed in transfected cells; host or cells: U2OS
Sequence (P41145 whole entry): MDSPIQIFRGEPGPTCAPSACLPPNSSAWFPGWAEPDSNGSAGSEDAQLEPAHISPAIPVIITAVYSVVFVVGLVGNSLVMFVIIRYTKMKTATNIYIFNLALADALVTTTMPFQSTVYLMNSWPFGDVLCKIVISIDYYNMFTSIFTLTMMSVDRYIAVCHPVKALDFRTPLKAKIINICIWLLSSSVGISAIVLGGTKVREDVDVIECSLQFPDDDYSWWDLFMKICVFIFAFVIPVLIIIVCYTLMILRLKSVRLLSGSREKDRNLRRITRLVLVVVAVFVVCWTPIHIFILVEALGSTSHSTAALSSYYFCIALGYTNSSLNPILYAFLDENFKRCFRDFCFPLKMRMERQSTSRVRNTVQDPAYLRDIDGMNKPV
MEASUREMENT PROTOCOL: [35S]GTPγS stimulation, membranes from U2OS cells
Assay type: biochemical
RECORDED CONDITIONS: read-out: GTPγS stimulation % efficacy
Emax reference
Provide the reading as a plain figure in %.

COMPOUND: O=C(Cc1ccc(Cl)c(Cl)c1)N1CCN(CC2CCC2)[C@@H]2COC[C@H](N3CCCC3)[C@H]21 (racemic) [Example 5A55]
SUBJECT OF TEST: human kappa opioid receptors (Homo sapiens)
Emax [%]: 67
//
COMPOUND: O=C(Cc1ccc(C(F)(F)F)cc1)N1CCN[C@@H]2COC[C@H](N3CCCC3)[C@H]21 (racemic)
SUBJECT OF TEST: human kappa opioid receptors (Homo sapiens)
Emax [%]: 69
//
COMPOUND: O=C(Cc1cccc(Cl)c1Cl)N1CCN[C@@H]2COC[C@H](N3CCCC3)[C@H]21 (racemic)
SUBJECT OF TEST: human kappa opioid receptors (Homo sapiens)
Emax [%]: 181
//
COMPOUND: O=C(Cc1ccc(Cl)c(Cl)c1)N1CCN(S(=O)(=O)C2CC2)[C@@H]2COC[C@H](N3CCCC3)[C@H]21 (single isomer, unassigned) [Example 5A52A]
SUBJECT OF TEST: human kappa opioid receptors (Homo sapiens)
Emax [%]: 119
//
COMPOUND: O=C(Cc1ccc(Cl)cc1)N1CCN[C@@H]2COC[C@H](N3CCCC3)[C@H]21 (racemic)
SUBJECT OF TEST: human kappa opioid receptors (Homo sapiens)
Emax [%]: 140

# context switch: different compound, same Emax
Enquiry: // Emax lookup, key: O=C(Cc1cccc(Cl)c1)N1CCN[C@H]2COC[C@@H](N3CCCC3)[C@@H]21 (single isomer, unassigned) [Example 5A24B]
Return: 102

Reference source: patent US11091497B2
